# patients with anti-drug antibodies listing for each entry below
# assay remarks: patients with anti-drug antibodies; higher = more immunogenic
Value expressed in %; do not type the unit.

For reference, reported patients with anti-drug antibodies for unnamed (protein) chain 1: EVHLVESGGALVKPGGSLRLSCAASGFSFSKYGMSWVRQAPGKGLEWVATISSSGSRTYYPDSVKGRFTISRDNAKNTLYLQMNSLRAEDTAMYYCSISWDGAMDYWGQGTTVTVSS chain 2: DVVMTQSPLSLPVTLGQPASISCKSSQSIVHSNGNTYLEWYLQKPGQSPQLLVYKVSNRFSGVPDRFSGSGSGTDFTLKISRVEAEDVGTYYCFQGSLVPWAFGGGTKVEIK stands at 6.2

For reference, reported patients with anti-drug antibodies for unnamed (protein) chain 1: QVQLVQSGAEVKKPGASVKVSCKASGYIFITYWMTWVRQAPGQGLEWMGQIFPASGSADYNEKFEGRVTMTTDTSTSTAYMELRSLRSDDTAVYYCARGGGGFAYWGQGTLVTVSS chain 2: DIQMTQSPSSLSASVGDRVTITCRTSENIYSYLAWYQQKPGKAPKLLIYNAKTLAEGVPSRFSGSGSGTDFTLTISSLQPEDFATYYCQHHYGIPFTFGQGTKVEIK stands at 6.5

For reference, reported patients with anti-drug antibodies for unnamed (protein) chain 1: EVQLVQSGAEVKKPGESLKISCKGSGYSFTGYNMNWVRQMPGKGLEWMGNIDPYYGGTTYNRKFKGQVTISADKSISTAYLQWSSLKASDTAMYYCARSVGPFDSWGQGTLVTVSS chain 2: EIVLTQSPATLSLSPGERATLSCRASENVYSYLAWYQQKPGQAPRLLIYFAKTLAEGIPARFSGSGSGTDFTLTISSLEPEDFAVYYCQHHSDNPWTFGQGTKVEIK stands at 5
